Molecular target: CALRins5 (mutant calreticulin, 5 base pair insertion, Type 2) expressed with MPL on engineered cancer cells (UniProt P27797)
Sequence (P27797 other isoform, or with tags, fused parts or gaps mutant limits assumed): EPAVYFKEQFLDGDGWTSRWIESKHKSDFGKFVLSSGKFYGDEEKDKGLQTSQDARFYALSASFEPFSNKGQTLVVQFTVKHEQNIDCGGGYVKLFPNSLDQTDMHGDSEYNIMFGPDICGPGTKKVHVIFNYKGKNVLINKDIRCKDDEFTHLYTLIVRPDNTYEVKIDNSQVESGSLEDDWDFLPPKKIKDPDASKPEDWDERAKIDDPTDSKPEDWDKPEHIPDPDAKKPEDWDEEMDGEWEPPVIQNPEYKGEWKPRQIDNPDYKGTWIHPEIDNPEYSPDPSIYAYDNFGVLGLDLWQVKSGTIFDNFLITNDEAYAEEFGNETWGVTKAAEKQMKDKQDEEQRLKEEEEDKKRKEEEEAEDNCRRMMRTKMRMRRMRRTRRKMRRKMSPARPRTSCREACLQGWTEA
Assay: cell-based or functional assay
metric-name: Cytotoxicity EC50, OCI-M2 MPL CALRins5 cells
The answer should read as a number with its unit following.

INSERT INTO assay_data (binder, result) VALUES
  ('CALRB81 (MP1018 Fab x CD3W245-LH-scFv, medium affinity) (bispecific antibody, part only; not given: anti-CD3 scFv arm, constant regions, V domains shown, not shown: another chain or arm of the molecule; a dimerising Fc or GST; small tags and cut ends) VL: DVVMTQTPSSVSAAVGGTVTINCQASQSLYNNKNLAWYQQKPGQPPKLLIYYASALASGVSSRFKGSGSGTQFTLTISGVQSDDAATYYCQGEFNCNSADCNSFGGGTEVVVK VH: QSVEESGGRLVTPGTPLTITCTVSGFSLSSYAMSWVRQAPGKGLEWIGVIDSGGTTYYATWAKSRFTISKTTKVALKITSPTTEDTATYFCARESYAGYDGYGHPIPYGMDPWGPGTLVTVSS', '0.0171 µg/mL');

Now, please, on to the next binder.
Q: Give a short answer stating reported Cytotoxicity EC50, OCI-M2 MPL CALRins5 cells for CALRB116 (MP1007 Fab x CD3W245-HL-scFv, high affinity) (bispecific antibody, part only; not given: anti-CD3 scFv arm, constant regions, V domains shown, not shown: another chain or arm of the molecule; a dimerising Fc or GST; small tags and cut ends) VH: QQLEESGGRLVAPGTPLRLTCTVSGIDLSNNAVSWVRQAPGKGLEYIGVIGNTGTTYYANWAKGRFTISKTSSTTVDLKMTSLTTDDTATYFCVRGPPSYSNSVRNIWGPGTLVTVSS VL: DPMLTQTPSSVSAAVGGTVTIGCQSSQSVYDNNWLSWYQQKPGQPPNRLIYDASKLASGVPSRFSGSGSGTQFTLTISGVKSDDAATYYCAGGYTGNVYSFGGGTMVEIK .
Ans: 0.0392 µg/mL
